Task for the reader: assign each of the following substances its reported cRBC (50 μM).
- Test system: cRBC
- Assay type: cell-based, canine

Challenge: I am curious: what cRBC (50 μM) value has been reported for 4 (KFCFRVCYRGICYRRCRD; Artificial antimicrobial peptide) [compound 4] ?
Response given: 67.1

Challenge: Also need 3 (GWCFRVCYRGICYRRCRD; Artificial Antimicrobial peptide) [compound 3] , thanks.
Response given: 67.1

Challenge: Also need 31 (PWCFRVCYRGICYRRCRD; Artificial Antimicrobial peptide) [compound 31] , thanks.
Response given: 43.5

Challenge: Also need 106 (KWCWRVCYRGICYRRCRD; Artificial Antimicrobial peptide) [compound 106] , thanks.
Response given: 101.5

Challenge: Also need 9 (KWCFRVCYRGFCYRRCRD; Artificial Antimicrobial peptide) [compound 9] , thanks.
Response given: 101.3

Challenge: Also need 110 (KWCFRVCYRGYCYRRCRD; Artificial Antimicrobial peptide) [compound 110] , thanks.
Response given: 46.3

Challenge: Also need 6 (KWCFRVCRRGICYRRCRD; Artificial Antimicrobial peptide) [compound 6] , thanks.
Response given: 1.1

Challenge: Also need 113 (KWCFRVCYRGICYRRCAD; Artificial Antimicrobial peptide) [compound 113] , thanks.
Response given: 86.3

Challenge: Also need 103 (KWCFRVCKRGICYRRCRD; Artificial Antimicrobial peptide) [compound 103] , thanks.
Response given: 7.9

Challenge: Also need 115 (GWCFRVCYRGICYRRCND; Artificial Antimicrobial peptide) [compound 115] , thanks.
Response given: 94.6

Challenge: Also need 117 (GWCFYVCYRGICYRRCRD; Artificial Antimicrobial peptide) [compound 117] , thanks.
Response given: 97.8

Challenge: Also need 96 (KWCFRVCYGRICYRRCRD; Artificial Antimicrobial peptide) [compound 96] , thanks.
Response given: 101.4

Challenge: Also need 116 (KWCFYVCYRGICYRRCND; Artificial Antimicrobial peptide) [compound 116] , thanks.
Response given: 87.0

Challenge: Also need 7 (KWCFRVCYRGVCYRRCRD; Artificial Antimicrobial peptide) [compound 7] , thanks.
Response given: 84.1

Challenge: Also need 2 (RWCFRVCYRGICYRRCRD; Artificial antimicrobial peptide) [compound 2] , thanks.
Response given: 64.0

Challenge: Also need 98 (KWCVRVCYRGICYRRCRD; Artificial Antimicrobial peptide) [compound 98] , thanks.
Response given: 35.0

Challenge: Also need 97 (KRCFRVCYRGICYRRCRD; Artificial Antimicrobial peptide) [compound 97] , thanks.
Response given: 31.2

Challenge: Also need 100 (KWCFWVCYRGICYRRCRD; Artificial Antimicrobial peptide) [compound 100] , thanks.
Response given: 100.0

Challenge: Also need 11 (KWCFRVCYRGICYRRCND; Artificial Antimicrobial peptide) [compound 11] , thanks.
Response given: 57.8
